EXPERIMENTAL_SYSTEM: E. coli DdlB enzyme (D-alanine:D-alanine ligase) (Escherichia coli)
Construct: made in house; host or cells: E. coli
ASSAY_PROTOCOL: biochemical
CONDITION_CONTEXT: residual activity; tested concentration 2.2 mM; read-out: DdlB RA
So I've got a bunch of compounds here, and I need their remaining activity at 2200 µM values.
Entry rule: numbers only, all in %.

GET /values?readout=remaining activity at 2200 µM&item= Cc1ccccc1-n1nnnc1C1(N(C)C)CCCC1 91

GET /values?readout=remaining activity at 2200 µM&item= O=C(O)c1cc(-c2ccccc2)nc2c(Cl)cnn12 90

GET /values?readout=remaining activity at 2200 µM&item= Cn1cnc(S(=O)(=O)NC2CCCCCCC2)c1 91

GET /values?readout=remaining activity at 2200 µM&item= Brc1ccc(-c2nc[nH]n2)cc1 88

GET /values?readout=remaining activity at 2200 µM&item= CCNC(=O)N1CCC(F)(C(=O)N2CCCC2)CC1 89

GET /values?readout=remaining activity at 2200 µM&item= O=C(NCc1c[nH]c2ncccc12)C1CCC1 90

###

EXPERIMENTAL_SYSTEM: E. coli DdlB enzyme (D-alanine:D-alanine ligase) (Escherichia coli, UniProt P07862)
Construct: made in house; host or cells: E. coli
ASSAY_PROTOCOL: biochemical
CONDITION_CONTEXT: residual activity; tested concentration 1.8 mM; read-out: DdlB RA
So I've got a bunch of compounds here, and I need their remaining activity at 1800 µM values.
Please make sure the unit comes right after the number.

GET /values?readout=remaining activity at 1800 µM&item= Cc1cccc(C(=O)N2CCCCC2c2nnc(C)[nH]2)c1 (stereo not shown) [Compound M754-0809] 89%

GET /values?readout=remaining activity at 1800 µM&item= O=C(O)c1cnc2c(OC(F)(F)F)cccc2c1O [Compound Y042-3118] 88%

GET /values?readout=remaining activity at 1800 µM&item= O=C(Cc1c[nH]c2ncccc12)NCC1CCCCC1 [Compound M508-0609] 92%

GET /values?readout=remaining activity at 1800 µM&item= O=S(=O)(c1cccnc1)N1CCC2(CCC2O)CC1 (stereo not shown) [Compound S971-1046] 89%

###

EXPERIMENTAL_SYSTEM: E. coli DdlB enzyme (D-alanine:D-alanine ligase) (Escherichia coli, UniProt P07862)
Construct: made in house; host or cells: E. coli
ASSAY_PROTOCOL: biochemical
CONDITION_CONTEXT: residual activity of DdlB; fragment library screening; tested concentration 2.5 mM; read-out: DdlB RA
Experimental: The fragment library was assayed in a DdlB inhibition assay, where fragments were tested for their ability to inhibit the D-Ala-adding activity of DdlB ligase. The orthophosphate formed during the enzymatic reaction was measured spectrophotometrically using malachite green reagent. A recombinant E. coli DdlB enzyme (D-alanine:D-alanine ligase) was expressed in E. coli[11]. […] The final DMSO concentration was 5%. […] All experiments were performed in duplicates. […]
So I've got a bunch of molecules here, and I need their remaining activity at 2500 µM values.
Entry rule: numbers only, all in %.

GET /values?readout=remaining activity at 2500 µM&item= NC(=O)c1cnccn1 100

GET /values?readout=remaining activity at 2500 µM&item= NCc1nc2ccccc2[nH]1 105

GET /values?readout=remaining activity at 2500 µM&item= NCCc1ccc(Br)cc1 93

GET /values?readout=remaining activity at 2500 µM&item= Nc1c(Br)cc(Br)cc1C(=O)O 100

GET /values?readout=remaining activity at 2500 µM&item= Nc1ncnc2[nH]ccc12 94

GET /values?readout=remaining activity at 2500 µM&item= CSc1nc(N)n[nH]1 97

GET /values?readout=remaining activity at 2500 µM&item= Cc1ccc(C(=N)N)cc1 100

GET /values?readout=remaining activity at 2500 µM&item= Clc1ccc(Cl)nn1 98

GET /values?readout=remaining activity at 2500 µM&item= N#Cc1ccc(CCO)cc1 100

GET /values?readout=remaining activity at 2500 µM&item= Clc1ncnc2[nH]ccc12 95

GET /values?readout=remaining activity at 2500 µM&item= N#Cc1c(N)cccc1F 98

GET /values?readout=remaining activity at 2500 µM&item= c1cnc2c(c1)ccc1cccnc12 74

GET /values?readout=remaining activity at 2500 µM&item= Nc1cccc([N+](=O)[O-])c1 98

GET /values?readout=remaining activity at 2500 µM&item= CCOc1ccc(NC(C)=O)cc1 98

GET /values?readout=remaining activity at 2500 µM&item= O=C(O)c1ccc(-n2ccnc2)cc1 96

GET /values?readout=remaining activity at 2500 µM&item= CC(=O)c1ccc[nH]1 95

GET /values?readout=remaining activity at 2500 µM&item= Nc1cc(Cl)ccc1O 100

GET /values?readout=remaining activity at 2500 µM&item= N#Cc1ccsc1N 100

GET /values?readout=remaining activity at 2500 µM&item= COC(=O)c1ccccc1C(=O)O 89

GET /values?readout=remaining activity at 2500 µM&item= OC1CCCc2ccccc21 (centres unmarked) 99

GET /values?readout=remaining activity at 2500 µM&item= Nc1ccc(Br)cn1 92

GET /values?readout=remaining activity at 2500 µM&item= O=C(O)Cc1c(Cl)cccc1Cl 100

GET /values?readout=remaining activity at 2500 µM&item= O=C(O)c1ccc(F)cc1 98

GET /values?readout=remaining activity at 2500 µM&item= Cc1cc(C)n(CO)n1 97

GET /values?readout=remaining activity at 2500 µM&item= CC(=O)c1ccc([N+](=O)[O-])cc1 100

GET /values?readout=remaining activity at 2500 µM&item= N#Cc1ccc(F)c(F)c1 95

GET /values?readout=remaining activity at 2500 µM&item= CCOC(=O)c1cccnc1C 99

GET /values?readout=remaining activity at 2500 µM&item= CCOC(=O)C(C#N)c1ccccc1 (centres unmarked) 89

GET /values?readout=remaining activity at 2500 µM&item= Nc1cc(F)c(F)cc1C(=O)O 92

GET /values?readout=remaining activity at 2500 µM&item= O=C(O)Cc1ccncc1 96

GET /values?readout=remaining activity at 2500 µM&item= Nc1ncccc1O 97

GET /values?readout=remaining activity at 2500 µM&item= O=C(O)c1ccc(-c2cnco2)cc1 87

GET /values?readout=remaining activity at 2500 µM&item= N=C1NC(=O)CS1 99

GET /values?readout=remaining activity at 2500 µM&item= COc1c(C)[nH]ccc1=O 96

GET /values?readout=remaining activity at 2500 µM&item= NCCc1cccc(F)c1 94

GET /values?readout=remaining activity at 2500 µM&item= O=C(O)c1n[nH]c2ccccc12 97

GET /values?readout=remaining activity at 2500 µM&item= Oc1ccc(OCc2ccccc2)cc1 100

GET /values?readout=remaining activity at 2500 µM&item= O=C(O)c1ccc[nH]1 100

GET /values?readout=remaining activity at 2500 µM&item= Oc1c(F)c(F)c(F)c(F)c1F 92

GET /values?readout=remaining activity at 2500 µM&item= Cc1cc(C)nc(C)c1 95

GET /values?readout=remaining activity at 2500 µM&item= Cc1cc(Cl)ccc1O 85

GET /values?readout=remaining activity at 2500 µM&item= O=C(O)c1cccc(Cl)c1 100

GET /values?readout=remaining activity at 2500 µM&item= Nc1ncncn1 98

GET /values?readout=remaining activity at 2500 µM&item= OCc1ccc(Br)cc1 96

GET /values?readout=remaining activity at 2500 µM&item= NC(=O)Nc1ccccc1 99

GET /values?readout=remaining activity at 2500 µM&item= CCc1occc(=O)c1O 86

GET /values?readout=remaining activity at 2500 µM&item= O=C(O)[C@H](O)Cc1ccccc1 93

GET /values?readout=remaining activity at 2500 µM&item= CC(=O)N1CCC(=O)CC1 100

GET /values?readout=remaining activity at 2500 µM&item= NCc1ccccc1Cl 100

GET /values?readout=remaining activity at 2500 µM&item= O=C(O)Cc1ccc(F)c(C(F)(F)F)c1 100

GET /values?readout=remaining activity at 2500 µM&item= Oc1cccc(-c2ccccc2)c1 98

GET /values?readout=remaining activity at 2500 µM&item= CC(=O)Nc1ccccc1C(=O)O 98

GET /values?readout=remaining activity at 2500 µM&item= Cc1ccc(O)c(C)c1 91

GET /values?readout=remaining activity at 2500 µM&item= Cc1nc(-c2ccncc2)sc1C(=O)O 96

GET /values?readout=remaining activity at 2500 µM&item= COc1ccc(-c2ccc(C(=O)O)o2)cc1 100

GET /values?readout=remaining activity at 2500 µM&item= Cc1cccc(N)c1C#N 100

Reference for the values: paper PMC9718554
